Cited source: ChEMBL document CHEMBL1201862

- TARGET: Replicative DNA helicase DnaB (Mycobacterium tuberculosis, UniProt P9WMR3)
- Sequence (P9WMR3 1-399, added parts left off): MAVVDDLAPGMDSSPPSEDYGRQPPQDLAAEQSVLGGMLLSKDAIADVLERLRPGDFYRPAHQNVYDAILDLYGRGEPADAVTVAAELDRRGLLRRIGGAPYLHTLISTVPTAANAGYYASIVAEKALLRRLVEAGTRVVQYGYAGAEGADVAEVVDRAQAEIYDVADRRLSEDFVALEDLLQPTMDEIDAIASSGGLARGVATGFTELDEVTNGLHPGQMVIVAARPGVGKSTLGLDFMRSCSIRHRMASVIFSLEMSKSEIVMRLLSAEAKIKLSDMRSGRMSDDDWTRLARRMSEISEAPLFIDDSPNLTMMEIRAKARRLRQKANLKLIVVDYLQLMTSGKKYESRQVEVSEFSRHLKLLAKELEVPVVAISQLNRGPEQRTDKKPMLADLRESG
- TEST NAME: DnaB intein splicing inhibitors, dose response, biochemical, cell-free fluorescence (AID 449749)
- Type: functional
Calls of active or inactive are those of the source.
Pick one: YES = active, NO = inactive

Examples from the recorded data:
COMPOUND | TARGET | LABEL VALUE
COc1ccc(CC(=O)N/N=C(/C)CC(=O)N(C)c2ccccc2)cc1 | Replicative DNA helicase DnaB (Mycobacterium tuberculosis, UniProt P9WMR3) | YES
COCC(C)NC(=O)CCS(=O)(=O)c1nc(-c2ccc(OC)cc2)cc(C(F)(F)F)n1 (stereo not given) | Replicative DNA helicase DnaB (Mycobacterium tuberculosis, UniProt P9WMR3) | YES
COc1ccc(-c2[nH]nc3c2C(c2ccccc2OC(=O)N2CCOCC2)C(C#N)=C(N)O3)cc1 (stereo not given) | Replicative DNA helicase DnaB (Mycobacterium tuberculosis, UniProt P9WMR3) | YES
Cn1cnc([N+](=O)[O-])c1Oc1ccc2ccccc2c1 | Replicative DNA helicase DnaB (Mycobacterium tuberculosis, UniProt P9WMR3) | YES
CN1CCN2c3ccc(N)cc3CC3(C(=O)NC(=O)NC3=O)C2C1 (stereo not given) | Replicative DNA helicase DnaB (Mycobacterium tuberculosis, UniProt P9WMR3) | YES

What call does the record list for Cc1ccc2c(c1)c1nnc(SCC(=O)Nc3ccc(N(C)C)cc3)nc1n2CC(=O)O ?
YES

What call does the record list for Cc1ccccc1NC(=O)C(=Cc1ccc(C(=O)O)cc1)C(=O)Nc1ccccc1C ?
YES

What call does the record list for O=C(CCl)N1N=C(c2ccco2)CC1c1ccco1 (stereo not given) ?
NO

What call does the record list for CCOC(=O)CSc1nc2sc3c(c2c(=O)n1C1CCCCC1)CCN(C)C3 ?
NO

====

- TARGET: UniProt:P61088
- Sequence (P61088 whole entry): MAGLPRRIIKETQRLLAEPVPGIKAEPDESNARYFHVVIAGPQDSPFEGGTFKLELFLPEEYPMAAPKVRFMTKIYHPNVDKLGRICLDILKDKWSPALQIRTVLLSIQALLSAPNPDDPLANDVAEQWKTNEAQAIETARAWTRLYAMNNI
- Type: functional
Active and inactive are the calls of the source.
Pick one: Yes for active, No for inactive

SUBSTANCE SMILES | TARGET | LABEL VALUE
CCC(=O)NC(=S)NNC(=O)c1ccc(O)cc1 | UniProt:P61088 | Yes
COc1ccc(-c2cc3c(=O)n(CC(=O)NCCCN4CCC(N5CCCCC5)CC4)nc(C)n3n2)cc1 | UniProt:P61088 | No

What call does the record list for COc1ccc2sc(-c3ccccc3OC)c(-c3ccc(OCCN4CCCC4)cc3)c2c1 ?
No

What call does the record list for CCOC(=O)N1CCN(C(=O)C(=O)Nc2sc3c(c2C(N)=O)CC(C)(C)OC3)CC1 ?
No

====

# EC50 annotations
- TARGET: UniProt P38532
- Sequence (P38532 whole entry): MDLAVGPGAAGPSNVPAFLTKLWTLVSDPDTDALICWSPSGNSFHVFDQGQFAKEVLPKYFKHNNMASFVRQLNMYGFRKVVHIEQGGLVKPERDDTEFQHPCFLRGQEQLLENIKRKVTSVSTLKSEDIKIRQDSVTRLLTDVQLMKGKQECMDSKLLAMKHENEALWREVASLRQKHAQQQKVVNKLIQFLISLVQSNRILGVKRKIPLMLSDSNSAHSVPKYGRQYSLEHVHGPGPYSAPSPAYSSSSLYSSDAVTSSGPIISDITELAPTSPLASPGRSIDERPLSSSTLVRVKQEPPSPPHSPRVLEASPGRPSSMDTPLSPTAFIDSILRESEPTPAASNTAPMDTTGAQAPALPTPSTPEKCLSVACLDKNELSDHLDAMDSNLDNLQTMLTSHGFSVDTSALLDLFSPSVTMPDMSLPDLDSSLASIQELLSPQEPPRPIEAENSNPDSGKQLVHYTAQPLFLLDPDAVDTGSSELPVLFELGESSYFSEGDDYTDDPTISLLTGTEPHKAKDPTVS
- TEST NAME: decrease of HSF1-responsive luciferase luminescence – cell-based, NIH3T3, dose retest, confirmation (AID 2382);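 also: NIH3T3 fibroblasts with HSF1-driven luciferase reporter stressed by proteasome inhibitor MG132; luminescence from HSF1-driven luciferase expression after 8 hours of MG132 stress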
- Format: functional
The source made the active and inactive calls.

Using known records, supply EC50 for O=C(Nc1ccc(F)cc1F)c1cc2nc3c(c(C(F)(F)F)n2n1)CCCC3
< 0.16 µM (active)

Using known records, supply EC50 for O=C(CCN1C(=O)/C(=C/c2ccc(F)cc2)SC1=S)NCCCn1ccnc1
> 195 µM (not active)

Using known records, supply EC50 for CC(C)Nc1nnc(Sc2ccc(Cl)cc2[N+](=O)[O-])s1
> 195 µM (not active)

Using known records, supply EC50 for O=C(CC(Nc1ccccc1Cl)C(=O)OCC(=O)c1cccs1)c1ccccc1 (stereo unspecified)
0.847 µM (active)

Using known records, supply EC50 for CCc1nnc(NC(=O)CSc2nc(C)c3c(c2C#N)CCCC3)s1
> 195 µM (not active)
